From: patent US10889573B2

- Tested on: Dirofilaria immitis microfilariae
- assay.method.text: In vitro assay 3: Dirofilaria immitis microfilariae (DIROIM L1), motility
- test.settings: 72 h, read-out: EC50 (reduction of motility), 72 h incubation
EC50 reference

compound: C=Cc1c(C(=O)N[C@H]2CCOc3ccccc32)cnc2c(-c3cc(Cl)cc(Cl)c3)cccc12
EC50: < 0.1 µg/mL
//
compound: O=C(N[C@H]1CCOc2ccccc21)c1cnc2c(-c3sccc3Cl)cccc2c1N1CCOCC1
EC50: < 0.1 µg/mL

Proceed to the following item.
Record request: EC50 value, item Cc1nc2c(-c3cccc(Cl)c3Cl)cccc2c(N(C)C)c1C(=O)N[C@H]1CCOc2ccccc21
< 10 µg/mL

----------
- Tested on: Dirofilaria immitis microfilariae
- assay.method.text: In vitro assay 3: Dirofilaria immitis microfilariae (DIROIM L1), motility
- test.settings: 72 h, read-out: EC50 (reduction of motility), 72 h incubation
readout: EC50

Study these solved cases before continuing.
compound: COc1cc(-c2cccc3c(N(C)C)c(C(=O)N[C@H]4CCOc5ccccc54)cnc23)ccn1
readout.value: < 0.1 µg/mL

compound: CC(C)(C)OC(=O)[C@@H]1CCCN1c1c(C(=O)N[C@H]2CCc3ccccc32)cnc2c(-c3cc(Cl)cc(Cl)c3)cccc12
readout.value: < 1 µg/mL

compound: COCCOc1c(C(=O)N[C@H]2CCOc3ccccc32)cnc2c(-c3cc(Cl)cc(Cl)c3)cccc12
readout.value: < 0.1 µg/mL

compound: COc1c(F)ccc(-c2cccc3c(N4CCOCC4)c(C(=O)N[C@H]4CCOc5ccccc54)cnc23)c1F
readout.value: < 0.1 µg/mL

Record request: EC50 value, item CN(C)c1c(C(=O)N[C@H]2CCOc3ccccc32)cnc2c(-c3ccc(F)cc3Cl)c(F)ccc12
< 0.1 µg/mL

Can you handle COc1ccc(-c2cc(Cl)cc(Cl)c2)c2ncc(C(=O)N[C@H]3CCOc4ccccc43)c(N(C)C)c12 next?
< 0.1 µg/mL

Can you handle O=C(NC1CCOc2ccccc21)c1cnc2c(-c3cc(Cl)cc(Cl)c3)cccc2c1N1CC2CCC(C1)O2 (centres unmarked) next?
< 10 µg/mL

----------
- Tested on: Dirofilaria immitis microfilariae
- assay.method.text: In vitro assay 3: Dirofilaria immitis microfilariae (DIROIM L1), motility
- test.settings: 72 h, read-out: EC50 (reduction of motility), 72 h incubation
EC50 reference

Study these solved cases before continuing.
compound: O=C(N[C@H]1CCOc2ccccc21)c1cnc2c(-c3cccc(Cl)c3Cl)cccc2c1C1=CCOCC1
EC50: < 0.1 µg/mL

compound: O=C(N[C@H]1CCOc2ccccc21)c1cnc2c(-c3cc(Cl)cc(Cl)c3)cccc2c1-n1nccn1
EC50: < 0.1 µg/mL

compound: O=C(N[C@H]1CCOc2ccccc21)c1cnc2c(-c3cc(Cl)cc(Cl)c3)c(O)ccc2c1N1CCOCC1
EC50: < 0.1 µg/mL

compound: O=C(N[C@H]1CCOc2ccccc21)c1cnc2c(-c3cccc(OC(F)(F)F)c3)cccc2c1N1CCOCC1
EC50: < 0.1 µg/mL

compound: O=C(N[C@H]1CCc2ccccc21)c1cnc2c(-c3cc(Cl)cc(Cl)c3)cccc2c1N1CC(F)C1
EC50: < 0.1 µg/mL

compound: CC(=O)N(C)Cc1c(C(=O)N[C@H]2CCOc3ccccc32)cnc2c(-c3cc(Cl)cc(Cl)c3)cccc12
EC50: < 10 µg/mL

Record request: EC50 value, item O=C(N[C@H]1CCOc2ccccc21)c1cnc2c(-c3cc(Cl)ccc3F)cc(O)cc2c1N1CCOCC1
< 0.1 µg/mL

Can you handle O=C(N[C@H]1CCOc2ccccc21)c1cnc2c(-c3cccc(F)c3Cl)cccc2c1N1CCC(O)C1 (mixture of isomers) next?
< 0.1 µg/mL

Can you handle CN(C)c1c(C(=O)N[C@H]2CCOc3ccccc32)cnc2c(-c3cccc4[nH]ccc34)cccc12 next?
< 0.1 µg/mL

Can you handle Cc1cc(-c2cc(Cl)cc(Cl)c2)c2ncc(C(=O)N[C@H]3CCOc4ccccc43)c(N(C)C)c2c1 next?
< 0.1 µg/mL
